# studySystem: monkey GPC3-His protein (monkey)
# testDescription: ELISA, monkey GPC3-His coated; antibody 66.66 nM
Measured OD450 nm of individual entries
Reply with the value as a number alone.

binder: hAb007LH1L1b (antibody, human IgG1, V domains shown) VH: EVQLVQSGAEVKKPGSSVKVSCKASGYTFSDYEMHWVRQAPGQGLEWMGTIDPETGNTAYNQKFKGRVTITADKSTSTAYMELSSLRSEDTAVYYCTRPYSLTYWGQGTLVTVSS VL: DIVMTQTPLSLPVTPGEPASISCRSSQSFVHSNRDTYLQWYLQKPGQSPQLLIYKVSNRFSGVPDRFSGSGSGTDFTLKISRVEAEDVGVYYCFQGSHVPYTFGQGTKLEIK
quantityMeasured: OD450 nm
quantitativeResult: 2.54

Then there is this binder:
Ask: Supply OD450 nm value. Item: hAb006LH3L1 (antibody, human IgG1, V domains shown) VH: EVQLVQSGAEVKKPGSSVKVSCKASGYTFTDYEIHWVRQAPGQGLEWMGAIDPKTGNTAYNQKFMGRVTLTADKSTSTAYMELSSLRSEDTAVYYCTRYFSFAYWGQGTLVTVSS VL: DIVMTQTPLSLPVTPGEPASISCRSSQTFVHSNGNTYLQWYLQKPGQSPQLLIYKVSNRFSGVPDRFSGSGSGTDFTLKISRVEAEDVGVYYCFQGSHVPYTFGQGTKLEIK
Reply: 2.52
